system: SK-MEL-28 melanoma; experiment: NCI tumour cell line growth inhibition, 48 h; in the data active = GI50 below about 0.43 µM; inactive = the rest
Classes used: active, inactive

| molecule | class.label |
| --- | --- |
| C=CCN=C(N/N=C/c1ccc([N+](=O)[O-])o1)NS(=O)(=O)c1cc(C(=O)Nc2ccc(Cl)cc2)c(Cl)cc1SC | inactive |
| C[C@H]1CC[C@@]2(NC1)O[C@H]1C[C@H]3[C@@H]4CC[C@H]5C[C@@H](O)CC[C@]5(C)[C@H]4CC[C@]3(C)[C@H]1[C@@H]2C | inactive |
| O=C(Nc1ccc(Br)cc1F)c1cc(I)ccc1O | inactive |
| CC1=C(C(=O)Nc2ccc3n[nH]c(C)c3c2)C(c2ccc(C(F)(F)F)cc2)CC(=O)N1 (stereo not given) | inactive |
| CN1CCN(C(=O)C(C)(C)c2ccc(C(=O)Nc3cn4cc(-c5ccncc5)ccc4n3)cc2)CC1 | active |
| Cc1c(C(=O)Nc2ccccc2)sc2ncn(Cc3cccc(Cl)c3)c(=O)c12 | inactive |
| Cc1cc2c(cc1Cl)SC1=NN(C)C(C)N1S2(=O)=O (stereo not given) | inactive |
| O=C(/C=C/Sc1cc(C(F)(F)F)cc(C(F)(F)F)c1)c1ccc(Cl)cc1 | inactive |
| Cc1ccccc1OCC(O)CN1CCN(c2ccc(Cl)cc2)CC1 (stereo not given) | inactive |
| O=C(Nc1cccc(-n2cc(-c3ccncc3)c(-c3ccc(Cl)c(O)c3)n2)c1)Nc1cc(C(F)(F)F)cc(C(F)(F)F)c1 | inactive |
| Cc1[nH]c2ccccc2c1CCCO | inactive |
| O=C1OCC2=C1C(c1cccc(Cl)c1)c1cc3c(cc1N2CCO)OCCO3 (stereo not given) | active |
| Cc1cc(NCCCN(C)C)c2ccc3c(ccc4c(NCCCN(C)C)cc(C)nc43)c2n1 | active |
| CC1(C)C2CCC13C(=O)C1OC3(C2)C2C(=O)c3ccccc3C(=O)C12 (stereo not given) | inactive |
| Cc1cc([N+](=O)[O-])c(NS(=O)(=O)c2cccc(C(=O)O)c2)cc1-c1cccnc1 | inactive |
